Listed compounds paired with reported TGI
# Test system: LOX IMVI melanoma
# ASSAY PROCEDURE: NCI tumour cell line growth inhibition, 48 h

{"COMPOUND": "Cc1nc2ccccc2c(=O)n1/N=C(\\N=Nc1ccc(Cl)cc1)c1cccc(-c2ccco2)c1", "TGI": "> 100 µM"}
{"COMPOUND": "O=C1C=C(NCCc2ccc(O)c([N+](=O)[O-])c2)C(=O)c2[nH]cnc21", "TGI": "> 100 µM"}
{"COMPOUND": "COc1ccc2c(c1OC)C(=O)C2", "TGI": "> 100 µM"}
{"COMPOUND": "COC1CCCc2c(OC(C)=O)ccc(OC(C)=O)c21 (stereo unspecified)", "TGI": "> 100 µM"}
{"COMPOUND": "Cc1ccc(C(=O)Nc2ccc(S(=O)(=O)O)c3cc(S(=O)(=O)O)cc(S(=O)(=O)O)c23)cc1NC(=O)c1cccc(NC(=O)Nc2cccc(C(=O)Nc3cc(C(=O)Nc4ccc(S(=O)(=O)O)c5cc(S(=O)(=O)O)cc(S(=O)(=O)O)c45)ccc3C)c2)c1", "TGI": "> 100 µM"}

Request: Recorded TGI for `O=C(n1c2ccccc2c2n[nH]c(=S)nc21)C(F)(F)F` , please?
Result: > 100 µM

Request: `COc1ccc(C2=Nn3c(nnc3-c3ccc(F)c(Cl)c3)SC2)cc1`
Result: > 100 µM

Request: `O=C(Cn1c2ccc(Br)cc2c2nc3ccccc3nc21)NCc1ccccc1`
Result: > 100 µM

Request: `O=C1CCCC2=C1CC1=C(CCCC1=O)N2c1ccc(Cl)cc1`
Result: > 100 µM

Request: `Nc1nnc(N)n1N`
Result: > 100 µM

Request: `O=C1NC(c2ccccc2)(c2ccccc2)C(=O)N1CCCCCCN1C(=O)NC(c2ccccc2)(c2ccccc2)C1=O`
Result: > 100 µM

Request: CC(O)C(CO)NC(=O)C1CSSCC(NC(=O)C(N)Cc2ccccc2)C(=O)NC(Cc2ccccc2)C(=O)NC(Cc2c[nH]c3ccccc23)C(=O)NC(CCCCN)C(=O)NC(C(C)O)C(=O)N1 (stereo unspecified)
Result: > 100 µM

Request: `COc1ccc2nc3cc(Cl)ccc3c(Nc3ccccc3-c3ccccc3Nc3c4ccc(Cl)cc4nc4ccc(OC)cc34)c2c1`
Result: 47.4 µM

Request: `COc1cc2ncnc(NS(=O)(=O)c3cc4ccccc4s3)c2cc1OC`
Result: > 100 µM

Request: CCCC(=O)OCC1OC(n2cc(F)c(=O)[nH]c2=O)CC1OC(=O)CCC (stereo unspecified)
Result: > 10 µM

Request: `Cc1[nH]n(-c2nc(-c3ccccc3)cc(=O)[nH]2)c(=O)c1CCO`
Result: > 100 µM

Request: `C(=N\NC1=NCCCCN1)/c1ccc2ccccc2c1`
Result: 29.8 µM

Request: `CCN(Cc1cc(Cl)cc(C)c1O)Cc1c(O)ccc2ccccc12`
Result: 38.8 µM

Request: COc1ccc(C2CC(c3sc(Nc4ccc(C)cc4)nc3C)=NN2)cc1 (stereo unspecified)
Result: 34.4 µM

Request: `COc1ccc(SCc2cc(OC)ccc2OC)cc1`
Result: > 100 µM

Request: `COc1ccc(-c2nc(NC(=O)CS(=O)(=O)c3ccc(F)cc3)sc2C)cc1`
Result: 42.6 µM

* * *

Listed molecules paired with reported TGI
# Test system: KM20L2 colon
# ASSAY PROCEDURE: NCI tumour cell line growth inhibition, 48 h

{"MOLECULE": "CCC1(CC)C(=O)NC(=O)NC1=S", "TGI": "> 100 µM"}

Request: Look up TGI with KM20L2 colon for this molecule: CC(C)(C)c1cc(C2c3cc4c(cc3OC(O)(CO)C2C(=O)O)OCO4)cc(C(C)(C)C)c1O (stereo not given) (tested in a mixture with another compound)
Result: 33.4 µM

Request: `CN(C)CCNC(=O)c1cccc2c1C(=O)c1ccccc1C2=O`
Result: 77 µM

Request: `Cn1cc(-c2ccc3c4ccccc4n(C)c3c2)c2ccccc21`
Result: > 100 µM

Request: CC1[C@@]2(O[C@@H]3C=C4C5CCC6Cc7nc8c(nc7C[C@@]6(C)C5C[C@H](O)[C@@]4(C)[C@]13O)CC1CCc3c(cc4c5c3C(O)C[C@H]5[C@@H](C)C3(O4)OC(C)(C)CC3O)[C@]1(C)C8)O[C@@](C)(CO)C[C@@H]2O (stereo not given in full)
Result: > 3.72 µM

Request: C=CC[P@]1(=O)O[C@H](c2ccccc2)C(C)N1C(C)C (stereo not given in full)
Result: > 100 µM

Request: `COCN1COCN(C)C1=O`
Result: > 100 µM

* * *

# Test system: OVCAR-4 ovarian
# ASSAY PROCEDURE: NCI tumour cell line growth inhibition, 48 h
Where a SMILES comes first, the peptide text is derived from it. [ ]: non-standard residue; d: D form. Ava = NCCCCC(=O)O; Mpa = O=C(O)CCS
Listed compounds paired with reported TGI

The cases that follow already have their TGI on record.
{"COMPOUND": "COc1cc(/C=C/c2ccc(OC)c(OC)c2)oc(=O)c1", "TGI": "> 250 µM"}
{"COMPOUND": "COc1ccccc1/C=C1\\C(=O)N(C(=O)Cc2ccccc2)N=C1C", "TGI": "> 100 µM"}
{"COMPOUND": "CC(NC(=O)CCS)C(=O)NC(C)C(=O)NC(Cc1c[nH]c2ccccc12)C(=O)NC(Cc1c[nH]cn1)C(=O)NC(CO)C(=O)NC(Cc1c[nH]c2ccccc12)C(=O)NCCCCC(=O)NC(C)C(=O)NC(CCC(N)=O)C(=O)NC(CCCCN)C(=O)NC(C)C(=O)NC(CCCNC(=N)N)C(=O)NC(CCCCN)C(N)=O (centres undefined) ([Mpa]AAWHSW[Ava]AQKARK-NH2; configuration not given here)", "TGI": "> 100 µM"}
{"COMPOUND": "CCCCC[C@@H]1CCCC2NC(CCCCCO[Si](c3ccccc3)(c3ccccc3)C(C)(C)C)CCC21 (some centres undefined)", "TGI": "21 µM"}
{"COMPOUND": "CN(C)CCCNc1ccnc2c([N+](=O)[O-])cccc12", "TGI": "28.5 µM"}

Request: Recorded TGI for `CN(C)N1C(=O)C(=O)N(c2cccc3ccccc23)C1=O` , please?
Result: > 10 µM

Request: `COc1ccc([N+](=O)[O-])c2c(NCCCN(C)C)c(C)c(C)nc12`
Result: 63.5 µM

Request: COC(=O)C1(Cc2ccc3c(c2)CCC3)Cc2ccc3c(c2C1=O)CCC3 (centres undefined)
Result: > 66.7 µM

Request: `Cc1[nH]n(-c2nc(-c3ccccc3)cc(=O)[nH]2)c(=O)c1CCO`
Result: > 100 µM

Request: CN1C/C(=C\c2cccs2)C2=NN(c3ccccc3)C(c3cccs3)C2C1 (centres undefined)
Result: > 100 µM

* * *

Listed compounds paired with reported GI50
# Test system: MALME-3M melanoma
# ASSAY PROCEDURE: NCI tumour cell line growth inhibition, 48 h

The cases that follow already have their GI50 on record.
{"COMPOUND": "CC(C)(C)OC(=O)N(CCCCN(CCCn1c2c(c3ccccc3c1=O)C(=O)c1ccccc1-2)C(=O)OC(C)(C)C)CCCn1c2c(c3ccccc3c1=O)C(=O)c1ccccc1-2", "VALUE TYPE": "GI50", "RESULT": "> 100 µM"}
{"COMPOUND": "CN1CCN(C2=C(Cl)C(=O)c3ccccc3C2=O)CC1", "VALUE TYPE": "GI50", "RESULT": "1.81 µM"}
{"COMPOUND": "N#CC1=C(N)NC(=O)C(C#N)C12Nc1ccccc1S2 (centres undefined)", "VALUE TYPE": "GI50", "RESULT": "64 µM"}

Request: Look up GI50 with MALME-3M melanoma for this compound: `COc1ccc(C2=C(c3ccc(OC)cc3)C(=O)OC2)cc1`
Result: 3.91 µM

Request: `COc1ccc(C2=Nn3c(nnc3-c3ccc(F)c(Cl)c3)SC2)cc1`
Result: > 100 µM

Request: `C[C@H]1C[C@@H](n2c(Nc3ccc(OC(F)(F)F)cc3)nc3cc(CCC(=O)O)ccc32)CC(C)(C)C1`
Result: 16.2 µM

* * *

# System: K-562 leukemia
# ASSAY PROCEDURE: NCI tumour cell line growth inhibition, 48 h; in the data active means GI50 below about 0.43 µM; inactive means the rest
Thanks in advance; please answer with one of these: yes (1) (active), no (0) (inactive)

{"MOLECULAR STRING": "COc1cc(C[C@H]2COC(=O)[C@]2(O)Cc2ccc(OCc3ccccc3)c(OC)c2)ccc1OCc1ccccc1", "SYSTEM TESTED": "K-562 leukemia", "ASSIGNED LABEL": "no (0)"}
{"MOLECULAR STRING": "CN1CCN(C2=C(Cl)C(=O)c3ccccc3C2=O)CC1", "SYSTEM TESTED": "K-562 leukemia", "ASSIGNED LABEL": "no (0)"}
{"MOLECULAR STRING": "OCc1c(-c2cccs2)oc(-c2cccs2)c1CO", "SYSTEM TESTED": "K-562 leukemia", "ASSIGNED LABEL": "no (0)"}
{"MOLECULAR STRING": "CCCC(=O)Oc1ccc(/C(=C(\\C)c2ccc(Cl)cc2)c2ccc(OCCN(CC)CC)cc2)cc1", "SYSTEM TESTED": "K-562 leukemia", "ASSIGNED LABEL": "no (0)"}
{"MOLECULAR STRING": "O=C1/C(=C/c2ccc(F)cc2)COc2ccc(O)c(O)c21", "SYSTEM TESTED": "K-562 leukemia", "ASSIGNED LABEL": "yes (1)"}

Request: What classification did `COC(=O)CNC(=O)C(=O)c1c(O)c(O)c(C(C)C)c2cc(C)c(-c3c(C)cc4c(C(C)C)c(O)c(O)c(C(=O)C(=O)NCC(=O)OC)c4c3O)c(O)c12` end up with in this test?
Result: no (0)

Request: `COc1ccc(CCN2CCCn3c2nc2ccccc2c3=O)cc1`
Result: yes (1)

Request: `COc1ccc(Cn2cc3c(c2-c2ccccc2)CCc2cnoc2-3)cc1`
Result: yes (1)
